- Tested on: U2OS
- protocol.text: Multiplex assay against U2OS
- Type: toxicity, cell-based
- setup.conditions: human, 48 h, 1 µM, compound concentration 1 uM, replicate 1
recorded.metric: Population Hoechst High Intensity Objects (%)
Report the value in % with no unit label.

Query string: Population Hoechst High Intensity Objects (%) for COc1ccc(-c2ccc3ncc4c(c3c2)n(-c2ccc(N3CCNCC3)c(C(F)(F)F)c2)c(=O)n4C)cn1.O=C(O)/C=C\C(=O)O [BGT-226] ?
Result string: 22

Query string: If you can, please state the reported Population Hoechst High Intensity Objects (%) value of COc1cc2ncn(-c3cc(OCc4ccccc4C(F)(F)F)c(C(N)=O)s3)c2cc1OC [GW843682X] .
Result string: 8

Query string: I would be grateful if you could share the reported Population Hoechst High Intensity Objects (%) for CCCSc1nc(N[C@@H]2C[C@H]2c2ccc(F)c(F)c2)c2nnn([C@@H]3C[C@H](OCCO)[C@@H](O)[C@H]3O)c2n1 [TICAGRELOR] .
Result string: 4

// below: Population Hoechst High Intensity Objects (%) requested for another compound
Query string: If you can, please state the reported Population Hoechst High Intensity Objects (%) value of COC(=O)C1=C(C)NC(C)=C(C(=O)OCCCN2CCC(c3ccccc3)(c3ccccc3)CC2)[C@H]1c1cccc([N+](=O)[O-])c1 [NIGULDIPINE] .
Result string: 12

---

- Test system: U2OS
- protocol.text: Multiplex assay against U2OS
- Format: toxicity, cell-based
- setup.conditions: human, 24 h, 10 µM, compound concentration 10 uM, replicate 1
recorded.metric: Population Mitotic Cells (%)
Please respond with the number in % and leave the unit unwritten.

Examples with answers:
Query string: Look up Population Mitotic Cells (%) for this molecule: `CC(C)(C)NC[C@H](O)COc1nsnc1N1CCOCC1`
Result string: 80

Query string: Which Population Mitotic Cells (%) is reported for this molecule? `COc1ccccc1CN[C@H]1C2CCN(CC2)[C@H]1C(c1ccccc1)c1ccccc1`
Result string: 25

Query string: # query: Population Mitotic Cells (%) of entry `CNC(=O)Nc1ccc2c(c1)[C@@]1(CC2)OC(=O)N(CC(=O)N(Cc2ccc(F)cc2)[C@@H](C)C(F)(F)F)C1=O`
Result string: 53

Query string: Which Population Mitotic Cells (%) reading was recorded for the molecule Cc1cccc(CN2CCN(C(c3ccccc3)c3ccc(Cl)cc3)CC2)c1.Cl.Cl (centres undefined) ?
Result string: 57

Query string: Entry `CC(C)Oc1ccccc1C(=O)Nc1ccccc1C(=O)Nc1cccc(S(=O)(=O)C(F)(F)F)c1` has what Population Mitotic Cells (%)?
Result string: 25

Query string: I am curious: what Population Mitotic Cells (%) value has been reported for `CC(C)OC(=O)N1CCC(Oc2ncnc3c2cnn3-c2ccc(S(C)(=O)=O)cc2F)CC1` ?
Result string: 79

---
Query string: Entry under review: `CC(C)CC(=O)Nc1[nH]nc2c1CN(C(=O)C1CCN(C)CC1)C2(C)C` . Reported Population Mitotic Cells (%)?
Result string: 27

Query string: Would you mind telling me what Population Mitotic Cells (%) value was observed for CC1=C(C(=O)Nc2cc3cn[nH]c3cc2F)C(c2ccc(C(F)(F)F)cc2)CC(=O)N1 (centres undefined) ?
Result string: 33

Query string: Reported Population Mitotic Cells (%), molecule Cc1ccc2c(c1)c1c(n2CCc2ccc(C)nc2)CCN(C)C1 [LATREPIRDINE] : ____
Result string: 28
